Consider the following molecules; for each one, report its p21/klf2 (RP10): relative selectivity compared with SNDX-275.
# Test system: klf2 promoter-luciferase construct in A204 cells
# PROTOCOL DESCRIPTION: klf2 reporter gene induction (p21 versus klf2 selectivity)
# Assay type: cell-based
# STUDY CONDITIONS: 10 micromolar; SNDX-275 p21/klf2 ratio defined as 1.0
Format: numeric value only, no unit, no commentary.

Query: Read off the recorded p21/klf2 (RP10): relative selectivity compared with SNDX-275 for Nc1ccccc1NC(=O)/C=C/c1ccc(C(NCCN2CCOCC2)C(=O)Nc2ccc(C(F)(F)F)cn2)cc1 (stereo not shown) [Example 4-43]
Response: 2.1

Query: Read off the recorded p21/klf2 (RP10): relative selectivity compared with SNDX-275 for Nc1ccccc1NC(=O)/C=C/c1ccc(C(NCCN2CCOCC2)C(=O)Nc2ccc(Br)cc2)cc1 (stereo not shown) [Example 9-1]
Response: 2.2

Query: Read off the recorded p21/klf2 (RP10): relative selectivity compared with SNDX-275 for CN(C)CCNC(C(=O)Nc1ccc(C(F)(F)F)c(F)c1)c1ccc(/C=C/C(=O)Nc2ccccc2N)cc1 (stereo not shown) [Example 4-49]
Response: 1.5

Query: Read off the recorded p21/klf2 (RP10): relative selectivity compared with SNDX-275 for CN(C)CCNC(C(=O)Nc1ccc(C(F)(F)F)cc1F)c1ccc(/C=C/C(=O)Nc2ccccc2N)cc1 (stereo not shown) [Example 4-24]
Response: 1.5

Query: Read off the recorded p21/klf2 (RP10): relative selectivity compared with SNDX-275 for Nc1ccccc1NC(=O)/C=C/c1ccc(C(NCCCN2CCOCC2)C(=O)Nc2ccc(C3CC3)cc2)cc1 (stereo not shown) [Example 4-41]
Response: 2.1

Query: Read off the recorded p21/klf2 (RP10): relative selectivity compared with SNDX-275 for CC(C)c1ccc(NC(=O)C(NCCN2CCOCC2)c2ccc(/C=C/C(=O)Nc3ccccc3N)cc2)cc1 (stereo not shown) [Example 4-37]
Response: 1.7

Query: Read off the recorded p21/klf2 (RP10): relative selectivity compared with SNDX-275 for Nc1ccccc1NC(=O)/C=C/c1ccc(C(NCCN2CCOCC2)C(=O)Nc2ccc(C3CC3)cc2)cc1 (stereo not shown) [Example 4-47]
Response: 1.8
